These measurements were taken from ChEMBL document CHEMBL1821705.

Test: Clearance in mouse liver microsome at 1 uM after 30 mins by LC/MS analysis in the presence of NADPH
Assay type: ADME
Conditions: liver microsomes
value.type: microsomal CLint at 1 µM (µL/min/mg)

CC(C)c1cc2c(cc1N1CCN(C3COC3)CC1)C(C)(C)c1[nH]c3cc(C#N)ccc3c1C2=O ... 4.1

I: Cc1cc2c(cc1N1CCN(C3COC3)CC1)C(C)(C)c1[nH]c3cc(C#N)ccc3c1C2=O
II: CCc1cc2c(cc1N1CCN(C3COC3)CC1)C(C)(C)c1[nH]c3cc(C#N)ccc3c1C2=O
III: CC1(C)c2cc(N3CCN(C4COC4)CC3)c(CCC3CCCC3)cc2C(=O)c2c1[nH]c1cc(C#N)ccc21
IN: Arrange the 3 compounds from largest to smallest microsomal CLint at 1 µM. I would appreciate it if you listed the labels in the requested order.
OUT: III, I, II
(III: 44.7 µL/min/mg, I: 7 µL/min/mg, II: 4.5 µL/min/mg)

I: C#Cc1cc2c(cc1N1CCN(C3COC3)CC1)C(C)(C)c1[nH]c3cc(C#N)ccc3c1C2=O
II: CCCc1cc2c(cc1N1CCN(C3COC3)CC1)C(C)(C)c1[nH]c3cc(C#N)ccc3c1C2=O
IN: Between these two entries, I and II , state which has the higher microsomal CLint at 1 µM. # respond with the chosen item's label
OUT: II

###

Experiment: Total clearance in cynomolgus monkey at 0.5 mg/kg, iv
Type: ADME, organism-based, Macaca fascicularis
Design: dose 0.5 mg/kg, route intravenous
Conditions: in vivo
value.type: clearance (mL/min/kg)
A number alone suffices; assume mL/min/kg.

IN: Please give the measured clearance for this compound: `CCc1cc2c(cc1N1CCN(C3COC3)CC1)C(C)(C)c1[nH]c3cc(C#N)ccc3c1C2=O`
OUT: 0.73

###

Test: Oral bioavailability in cynomolgus monkey at 0.5 mg/kg
Assay type: ADME, organism-based, Macaca fascicularis
Settings: in vivo
value.type: bioavailability (%)
A number alone suffices; assume %.

IN: Please give the measured bioavailability for this molecule: `CCc1cc2c(cc1N1CCN(C3COC3)CC1)C(C)(C)c1[nH]c3cc(C#N)ccc3c1C2=O`
OUT: 28.2

###

Assay: Half-life in cynomolgus monkey at 0.5 mg/kg, iv
Format: ADME, organism-based, Macaca fascicularis
Design: dose 0.5 mg/kg, route intravenous
Details: in vivo
value.type: half-life (h)
A number alone suffices; assume h.

IN: Please give the measured half-life for this compound: `CCc1cc2c(cc1N1CCN(C3COC3)CC1)C(C)(C)c1[nH]c3cc(C#N)ccc3c1C2=O`
OUT: 5.3

###

Assay: Volume of distribution at steady state in cynomolgus monkey at 0.5 mg/kg, iv
Type: ADME, organism-based, Macaca fascicularis
Set-up: dose 0.5 mg/kg, route intravenous
Details: in vivo, read-out: Vdss
value.type: Vd (L/kg)
A number alone suffices; assume L/kg.

IN: Please give the measured Vd for this molecule: `CCc1cc2c(cc1N1CCN(C3COC3)CC1)C(C)(C)c1[nH]c3cc(C#N)ccc3c1C2=O`
OUT: 0.296

###

Experiment: AUC in cynomolgus monkey at 0.5 mg/kg, po
Format: ADME, organism-based, Macaca fascicularis
Design: dose 0.5 mg/kg, route oral
Conditions: plasma
value.type: AUC (ng·h/mL)
A number alone suffices; assume ng·h/mL.

IN: Please give the measured AUC for this compound: `CCc1cc2c(cc1N1CCN(C3COC3)CC1)C(C)(C)c1[nH]c3cc(C#N)ccc3c1C2=O`
OUT: 3270

###

ALK tyrosine kinase receptor (Homo sapiens, UniProt Q9UM73): recorded IC50 for assorted compounds
Sequence (Q9UM73 whole entry): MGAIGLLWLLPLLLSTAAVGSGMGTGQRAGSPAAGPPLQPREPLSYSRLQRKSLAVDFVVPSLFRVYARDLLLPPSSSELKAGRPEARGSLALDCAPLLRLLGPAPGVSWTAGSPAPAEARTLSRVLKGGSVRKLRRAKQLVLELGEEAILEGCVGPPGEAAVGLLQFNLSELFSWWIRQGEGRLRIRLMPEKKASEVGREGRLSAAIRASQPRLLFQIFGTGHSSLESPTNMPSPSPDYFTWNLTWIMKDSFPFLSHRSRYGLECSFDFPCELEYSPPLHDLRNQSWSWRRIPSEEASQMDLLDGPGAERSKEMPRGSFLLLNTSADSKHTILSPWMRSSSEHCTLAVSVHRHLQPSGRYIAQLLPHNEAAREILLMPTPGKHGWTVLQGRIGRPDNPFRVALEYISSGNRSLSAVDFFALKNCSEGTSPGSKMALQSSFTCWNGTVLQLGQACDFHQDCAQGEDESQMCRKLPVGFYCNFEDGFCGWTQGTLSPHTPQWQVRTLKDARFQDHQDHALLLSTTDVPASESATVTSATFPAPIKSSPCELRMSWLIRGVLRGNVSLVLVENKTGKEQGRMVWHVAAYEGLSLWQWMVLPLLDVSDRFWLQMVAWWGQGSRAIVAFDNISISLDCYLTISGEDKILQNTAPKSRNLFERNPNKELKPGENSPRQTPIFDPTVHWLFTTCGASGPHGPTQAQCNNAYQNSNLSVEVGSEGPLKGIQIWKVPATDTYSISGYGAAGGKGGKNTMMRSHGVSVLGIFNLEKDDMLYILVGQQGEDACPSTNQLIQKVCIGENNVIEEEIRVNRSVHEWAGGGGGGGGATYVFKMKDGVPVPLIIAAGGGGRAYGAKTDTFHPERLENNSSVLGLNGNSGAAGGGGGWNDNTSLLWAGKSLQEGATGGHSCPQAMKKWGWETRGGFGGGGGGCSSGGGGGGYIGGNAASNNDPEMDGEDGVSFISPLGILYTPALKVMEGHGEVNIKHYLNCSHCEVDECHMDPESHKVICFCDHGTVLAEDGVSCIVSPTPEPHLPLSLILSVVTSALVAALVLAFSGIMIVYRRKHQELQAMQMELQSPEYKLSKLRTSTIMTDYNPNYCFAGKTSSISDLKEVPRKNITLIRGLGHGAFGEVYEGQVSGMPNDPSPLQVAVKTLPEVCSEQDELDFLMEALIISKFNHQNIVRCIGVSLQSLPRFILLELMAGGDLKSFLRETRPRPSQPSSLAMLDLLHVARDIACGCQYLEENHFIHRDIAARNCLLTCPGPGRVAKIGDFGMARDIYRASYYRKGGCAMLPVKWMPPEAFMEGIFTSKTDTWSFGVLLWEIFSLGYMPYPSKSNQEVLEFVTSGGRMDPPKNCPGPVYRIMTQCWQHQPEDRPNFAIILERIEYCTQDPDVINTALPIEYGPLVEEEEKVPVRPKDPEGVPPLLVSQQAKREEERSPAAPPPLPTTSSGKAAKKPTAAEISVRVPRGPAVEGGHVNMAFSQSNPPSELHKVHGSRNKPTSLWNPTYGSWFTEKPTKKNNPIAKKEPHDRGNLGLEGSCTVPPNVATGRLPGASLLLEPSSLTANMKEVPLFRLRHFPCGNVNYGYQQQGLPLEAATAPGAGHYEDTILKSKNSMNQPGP
value.type: IC50 (nM)

1: CC(C)c1cc2c(cc1N1CCN(C3COC3)CC1)C(C)(C)c1[nH]c3cc(C#N)ccc3c1C2=O
2: C#Cc1cc2c(cc1N1CCN(C3COC3)CC1)C(C)(C)c1[nH]c3cc(C#N)ccc3c1C2=O
IN: Between these two entries, 1 and 2 , state which has the higher IC50. # respond with the chosen item's label
OUT: 1

###

Target: RAC-alpha serine/threonine-protein kinase (Homo sapiens)
Sequence (P31749 whole entry): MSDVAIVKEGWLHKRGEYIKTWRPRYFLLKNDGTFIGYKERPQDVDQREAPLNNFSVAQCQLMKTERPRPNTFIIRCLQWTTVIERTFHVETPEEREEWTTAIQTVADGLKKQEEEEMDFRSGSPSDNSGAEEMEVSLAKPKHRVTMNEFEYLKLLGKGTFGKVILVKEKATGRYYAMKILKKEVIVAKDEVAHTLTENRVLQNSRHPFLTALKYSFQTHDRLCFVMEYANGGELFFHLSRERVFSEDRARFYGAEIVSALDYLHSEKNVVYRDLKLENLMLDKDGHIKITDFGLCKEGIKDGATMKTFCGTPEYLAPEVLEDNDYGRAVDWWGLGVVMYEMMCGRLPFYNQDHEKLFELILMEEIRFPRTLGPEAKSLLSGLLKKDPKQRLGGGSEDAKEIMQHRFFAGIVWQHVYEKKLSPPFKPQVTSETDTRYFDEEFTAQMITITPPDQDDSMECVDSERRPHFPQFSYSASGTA
value.type: IC50

IN: Please state recorded IC50 (tested on RAC-alpha serine/threonine-protein kinase (Homo sapiens)) of `CCc1cc2c(cc1N1CCN(C3COC3)CC1)C(C)(C)c1[nH]c3cc(C#N)ccc3c1C2=O`
OUT: > 50 µM

###

Mast/stem cell growth factor receptor Kit (Homo sapiens): recorded IC50 for assorted molecules
Sequence (P10721 whole entry): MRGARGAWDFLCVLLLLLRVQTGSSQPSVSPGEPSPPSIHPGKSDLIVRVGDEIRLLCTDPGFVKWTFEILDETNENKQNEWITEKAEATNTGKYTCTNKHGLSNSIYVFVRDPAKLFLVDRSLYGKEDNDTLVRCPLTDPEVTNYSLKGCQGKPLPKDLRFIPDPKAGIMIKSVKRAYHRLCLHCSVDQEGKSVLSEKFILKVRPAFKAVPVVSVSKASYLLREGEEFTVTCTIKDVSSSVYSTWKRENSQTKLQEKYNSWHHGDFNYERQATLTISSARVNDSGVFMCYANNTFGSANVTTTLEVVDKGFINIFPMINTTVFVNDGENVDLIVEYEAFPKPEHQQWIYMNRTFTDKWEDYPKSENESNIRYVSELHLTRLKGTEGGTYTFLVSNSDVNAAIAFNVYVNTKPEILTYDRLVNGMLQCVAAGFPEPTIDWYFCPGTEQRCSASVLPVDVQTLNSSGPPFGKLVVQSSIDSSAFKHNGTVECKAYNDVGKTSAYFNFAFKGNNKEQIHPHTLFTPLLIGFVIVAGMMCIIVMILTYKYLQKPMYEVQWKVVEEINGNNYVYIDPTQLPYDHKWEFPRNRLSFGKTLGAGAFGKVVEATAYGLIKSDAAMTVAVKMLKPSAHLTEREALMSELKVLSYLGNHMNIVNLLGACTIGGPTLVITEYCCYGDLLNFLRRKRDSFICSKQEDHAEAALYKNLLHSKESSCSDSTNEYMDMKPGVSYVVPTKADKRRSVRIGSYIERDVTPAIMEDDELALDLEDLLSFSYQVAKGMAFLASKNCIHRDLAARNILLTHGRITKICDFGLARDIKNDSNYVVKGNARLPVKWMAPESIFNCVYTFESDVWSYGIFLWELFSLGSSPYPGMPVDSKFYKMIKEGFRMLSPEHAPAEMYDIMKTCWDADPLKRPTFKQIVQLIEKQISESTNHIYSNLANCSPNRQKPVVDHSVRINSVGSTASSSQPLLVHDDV
value.type: IC50 (µM)

1: CC1(C)c2cc(N3CCN(C4COC4)CC3)ccc2C(=O)c2c1[nH]c1cc(C#N)ccc21
2: Cc1cc2c(cc1N1CCN(C3COC3)CC1)C(C)(C)c1[nH]c3cc(C#N)ccc3c1C2=O
IN: Between these two entries, 1 and 2 , state which has the higher IC50. # respond with the chosen item's label
OUT: 1

###

Molecular target: Fibroblast growth factor receptor 2 (Homo sapiens)
value.type: IC50

IN: Please give the measured IC50 for this compound: `CCc1cc2c(cc1N1CCN(C3COC3)CC1)C(C)(C)c1[nH]c3cc(C#N)ccc3c1C2=O`
OUT: > 50 µM

###

Target: Proto-oncogene tyrosine-protein kinase Src (Homo sapiens)
Sequence (P12931 2-536 limits assumed): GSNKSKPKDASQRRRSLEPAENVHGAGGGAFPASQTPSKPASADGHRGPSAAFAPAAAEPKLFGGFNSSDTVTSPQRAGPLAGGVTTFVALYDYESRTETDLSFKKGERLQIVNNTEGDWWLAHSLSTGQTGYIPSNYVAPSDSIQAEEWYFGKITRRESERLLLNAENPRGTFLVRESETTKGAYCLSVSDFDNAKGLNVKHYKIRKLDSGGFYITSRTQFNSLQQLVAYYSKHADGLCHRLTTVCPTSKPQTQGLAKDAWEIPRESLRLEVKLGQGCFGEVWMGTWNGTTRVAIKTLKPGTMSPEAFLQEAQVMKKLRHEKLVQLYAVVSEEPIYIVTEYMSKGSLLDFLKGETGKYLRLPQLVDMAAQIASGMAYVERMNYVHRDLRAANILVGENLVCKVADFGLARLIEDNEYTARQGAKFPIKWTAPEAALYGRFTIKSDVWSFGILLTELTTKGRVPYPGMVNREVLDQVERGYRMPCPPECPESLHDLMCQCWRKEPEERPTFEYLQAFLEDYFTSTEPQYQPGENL
pIC50: −log10 of the molar value.
value.type: pIC50

IN: Please give the measured pIC50 for this compound: `CCc1cc2c(cc1N1CCN(C3COC3)CC1)C(C)(C)c1[nH]c3cc(C#N)ccc3c1C2=O`
OUT: < 4.30

###

Below: a set of entries, each annotated with reported pIC50.
Molecular target: Vascular endothelial growth factor receptor 2 (Homo sapiens, UniProt P35968)
Sequence (P35968 whole entry): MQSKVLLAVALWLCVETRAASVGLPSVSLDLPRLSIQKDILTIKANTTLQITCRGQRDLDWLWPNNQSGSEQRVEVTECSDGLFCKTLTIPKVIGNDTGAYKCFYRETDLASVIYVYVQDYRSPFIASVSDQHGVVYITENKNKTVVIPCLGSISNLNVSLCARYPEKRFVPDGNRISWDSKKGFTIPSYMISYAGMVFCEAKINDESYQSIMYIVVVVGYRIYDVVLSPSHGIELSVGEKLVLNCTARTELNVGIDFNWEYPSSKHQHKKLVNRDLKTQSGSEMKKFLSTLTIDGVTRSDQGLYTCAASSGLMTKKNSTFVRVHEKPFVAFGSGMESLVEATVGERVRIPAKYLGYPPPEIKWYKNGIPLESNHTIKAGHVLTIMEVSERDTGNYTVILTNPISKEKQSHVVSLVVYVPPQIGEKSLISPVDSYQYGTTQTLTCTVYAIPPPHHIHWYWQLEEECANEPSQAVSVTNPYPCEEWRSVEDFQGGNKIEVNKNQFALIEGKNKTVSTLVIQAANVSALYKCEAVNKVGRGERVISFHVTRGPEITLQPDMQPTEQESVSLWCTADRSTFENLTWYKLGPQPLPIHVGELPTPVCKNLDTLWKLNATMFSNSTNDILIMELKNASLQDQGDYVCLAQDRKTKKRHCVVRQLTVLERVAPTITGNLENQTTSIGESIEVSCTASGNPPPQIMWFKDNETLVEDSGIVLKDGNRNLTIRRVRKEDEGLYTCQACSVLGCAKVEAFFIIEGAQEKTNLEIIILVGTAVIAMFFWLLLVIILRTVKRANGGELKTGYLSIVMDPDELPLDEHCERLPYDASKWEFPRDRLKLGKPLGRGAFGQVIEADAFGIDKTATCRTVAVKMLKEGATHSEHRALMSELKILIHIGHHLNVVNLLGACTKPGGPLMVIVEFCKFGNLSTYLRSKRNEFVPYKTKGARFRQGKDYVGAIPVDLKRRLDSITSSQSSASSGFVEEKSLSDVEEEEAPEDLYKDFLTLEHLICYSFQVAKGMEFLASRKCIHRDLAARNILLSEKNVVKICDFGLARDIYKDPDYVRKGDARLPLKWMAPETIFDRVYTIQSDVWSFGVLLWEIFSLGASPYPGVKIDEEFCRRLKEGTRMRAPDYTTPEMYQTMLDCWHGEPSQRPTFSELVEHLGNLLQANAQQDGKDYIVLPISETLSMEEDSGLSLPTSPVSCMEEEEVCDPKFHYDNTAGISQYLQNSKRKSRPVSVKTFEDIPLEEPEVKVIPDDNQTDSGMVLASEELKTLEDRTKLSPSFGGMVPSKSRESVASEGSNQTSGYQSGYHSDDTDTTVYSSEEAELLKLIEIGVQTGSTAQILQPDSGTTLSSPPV
pIC50: −log10 of the molar value.

IN: Please give the measured pIC50 for this molecule: `CC(C)c1cc2c(cc1N1CCN(C3COC3)CC1)C(C)(C)c1[nH]c3cc(C#N)ccc3c1C2=O`
OUT: < 5.30

IN: Please give the measured pIC50 for this molecule: `CC1(C)c2cc(N3CCN(C4COC4)CC3)c(CCC3CCCC3)cc2C(=O)c2c1[nH]c1cc(C#N)ccc21`
OUT: < 5.30

IN: Please give the measured pIC50 for this molecule: `Cc1cc2c(cc1N1CCN(C3COC3)CC1)C(C)(C)c1[nH]c3cc(C#N)ccc3c1C2=O`
OUT: 7.22
